Measured values drawn from paper PMC4436063 for this set.

Target: CheS3
Assay: microscale thermophoresis
Settings: fluorescently labelled CheS3 (Blue-NHS, 100 nM); non-hydrolysable ATP analogue
measured-endpoint: Kd (nM)
Report as a plain number; the unit nM is understood.

-- ask Kd for Nc1ncnc2c1ncn2[C@@H]1O[C@H](COP(=O)(O)OP(=O)(O)OP(O)(O)=S)[C@@H](O)[C@H]1O [ATPγS] ?
-- reply 112
